meta.source: PubChem BioAssay (NCI)

- Test system: SK-MEL-28 melanoma
- RUN_DESCRIPTION: NCI-60 one-dose screen, 48 h (100 = growth as untreated, 0 = no growth, -100 = all killed)
- CONDITION_DETAILS: 10 µM unless noted
- Description: Growth inhibition of the SK-MEL-28 human tumor cell line is measured as a screen for anti-cancer activity. Cells are grown in 96 well plates and exposed to the test compound for 48 hours. Compounds are tested at a single concentration, which is 10^-5 M for most compounds. The reported endpoint is percent growth (GI% or GIPRCNT), where numbers from 0 - 100% represent growth inhibition, and numbers from -100% - 0 represent cell death. For example, a value of 40 represents 60% growth inhibition. […]
The panel holds about 83,000 compounds, 20% with a hit somewhere; the sample as a whole holds those more often. Calls of active or inactive are those of the source. Rule for the calls: active = growth percent below 10; inactive = the rest.
Below, each entry is listed with its recorded growth.

Below, 8 molecules whose answers are already recorded.
{"columns": ["MOLECULE", "growth"],
 "data": [
  ["Cc1nn2c(/C=C3/C(=O)Nc4cc(Cl)ccc43)c(-c3ccccc3)nc2s1", "-49.4% (active)"],
  ["CC(=O)Nc1c(Cl)cc2c(c1Cl)Cc1cc([N+](=O)[O-])ccc1-2", "102% (inactive)"],
  ["CC(C)OP(=O)(OC(C)C)c1ncc(-c2ccc(C(F)(F)F)cc2)c(NC2CCCCCC2)n1", "-74.5% [33.3 µM] (active)"],
  ["CCN(CC)CCCCCCCNc1c2ccc(Cl)cc2nc2ccc(OC)cc12", "-77.4% (active)"],
  ["O=C(c1ccc(Cl)cc1)c1ccc(Cl)cc1", "106% (inactive)"],
  ["COc1ccc(C2=NN(C(C)=O)C(c3cccc(Nc4ccnc5cc(Cl)ccc45)c3)C2)cc1 (stereo not given)", "73% (inactive)"],
  ["O=C(O)c1ccc2cccnc2c1O", "44.6% (inactive)"],
  ["CCSc1nc(-c2ccc(F)cc2)c(C#N)c(=O)[nH]1", "108% (inactive)"]
]}

Prompt: Look up SK-MEL-28 melanoma data: growth of `O=C1c2cccc3c([N+](=O)[O-])ccc(c23)C(=O)N1CCCCl` , then report it.
Response: -97.3% [100 µM] (active)

Prompt: Look up SK-MEL-28 melanoma data: growth of `COc1ccc(-c2cc(-c3cccnc3)nc3sc(C(=O)Nc4ccccc4)c(N)c23)cc1OC` , then report it.
Response: 73.3% (inactive)

Prompt: Look up SK-MEL-28 melanoma data: growth of `COC(=O)[C@H](Cc1cn(C)cn1)NC(=O)[C@H](C)NC(=O)Nc1cc(C(F)(F)F)cc(C(F)(F)F)c1` , then report it.
Response: -94.4% [100 µM] (active)

Prompt: Look up SK-MEL-28 melanoma data: growth of `C=C(CN1CCc2c([nH]c3ccccc23)C1)c1ccc(C(=O)Nc2ccon2)cc1` , then report it.
Response: 97.8% (inactive)

Prompt: Look up SK-MEL-28 melanoma data: growth of `O=C(CN1CCN(c2ccc(Cl)cc2)CC1)N1CCN(c2nnc(-c3ccccc3)c(-c3ccccc3)n2)CC1` , then report it.
Response: 83% (inactive)

Prompt: Look up SK-MEL-28 melanoma data: growth of `COc1cc(/C=N/NC(=O)c2ccc(C(F)(F)F)nc2Nc2cc(Cl)ccc2C)cc(OC)c1OC` , then report it.
Response: 99.5% (inactive)

Prompt: Look up SK-MEL-28 melanoma data: growth of CC1C(C)N(C(=O)CCl)c2ccccc2N1C(=O)CCl (stereo not given) , then report it.
Response: -45.9% (active)

---

- System: SF-268 CNS
- RUN_DESCRIPTION: NCI-60 one-dose screen, 48 h
- CONDITION_DETAILS: 10 µM unless noted
Compounds without any hit were thinned out: in the full panel of roughly 83,000, 20% have a hit. Calls of active or inactive are those of the source. Rule for the calls: active = growth percent below 10; inactive = the rest.
# output must be one of Y for active, N for inactive

Consider the following illustrative entries.
{"columns": ["COMPOUND", "LABEL_VALUE"],
 "data": [
  ["Cc1ccc2nc(-c3ccc(N(C)C)c(Br)c3)cn2c1", "N"],
  ["CC1CC=CCC1C1OCC(C)(C)CO1 (configuration not stated)", "N"],
  ["COc1cnc2c(c1)C(=O)c1c-2n(CCCNC2=NCCS2)c(=O)c2cc(F)ccc12", "N"],
  ["CNc1nc(NC2CCCC2)nc(Sc2ccc(OC)cc2)n1", "N"],
  ["O=C(Nc1ccc(Cl)cc1)Nc1ccccc1CNc1nc(Nc2ccc(OCCN3CCCC3)cc2)ncc1Cl", "N"],
  ["O=C1CNc2cc(Cl)ccc2N1", "N"]
]}

Moving on to another compound below.
Prompt: Recorded call for O=c1oc2c(cc1-c1ccc([N+](=O)[O-])cc1)C(O)Oc1ccccc1-2 (configuration not stated) ?
Response: N

---

- Tested on: T-47D breast
- RUN_DESCRIPTION: NCI-60 one-dose screen, 48 h
- CONDITION_DETAILS: 10 µM unless noted
This is part of a sample that, as a whole, favours compounds with a hit. Of some 83,000 tested, about 20% had one in any assay. The source made the active and inactive calls. How the source made its calls: active means growth percent below 10; inactive means the rest.
# output must be one of active, inactive

Consider the following illustrative entries.
{"columns": ["MOLECULE", "TARGET_OR_TEST_SYSTEM", "LABEL_VALUE"],
 "data": [
  ["C[C@@H]1[C@H]2[C@H](C=C3[C@@H]4CC[C@H]5Cc6nc7c(nc6C[C@]5(C)[C@H]4C[C@@H](O)[C@@]32C)C[C@@H]2CC[C@H]3C4=C[C@@H]5O[C@@]6(CC[C@](C)(CO)O6)[C@@H](C)[C@@]5(O)[C@@]4(C)[C@H](O)C[C@@H]3[C@@]2(C)C7)O[C@]12CCC(C)(C)O2", "T-47D breast", "active"],
  ["Cc1ccc(S(=O)(=O)NCCN2c3nc4ccccc4cc3Sc3cc4ccccc4nc32)cc1", "T-47D breast", "inactive"],
  ["OC(c1ccccc1)C(NCc1ccccc1)c1ccccc1 (stereo not given)", "T-47D breast", "inactive"],
  ["O=C1Nc2ccc(Cl)cc2/C1=C/c1cccs1", "T-47D breast", "inactive"]
]}

Moving on to another molecule below.
Prompt: Recorded call for `CCCCCc1c(C)[nH]c(/C=C2\N=C(c3ccc[nH]3)C=C2Oc2ccc(Cl)cc2)c1C` ?
Response: active

---

- Tested on: A498 renal
- RUN_DESCRIPTION: NCI-60 one-dose screen, 48 h (100 = growth as untreated, 0 = no growth, -100 = all killed)
- CONDITION_DETAILS: 10 µM unless noted
Compounds without any hit were thinned out: in the full panel of roughly 83,000, 20% have a hit.
Below, each entry is listed with its recorded growth.
Use % as the unit, but write only the number.

Below, 4 molecules whose answers are already recorded.
{"columns": ["MOLECULE", "TARGET_OR_TEST_SYSTEM", "growth / %"],
 "data": [
  ["COc1cc(-c2nnc(-c3nc(-c4cc(OC)c(OC)c(OC)c4)n4ccccc34)o2)ccc1N", "A498 renal", 98.8],
  ["NC(=O)c1cc(Br)cc(Br)c1NS(=O)(=O)c1ccccc1", "A498 renal", 96.1],
  ["COc1cc(/C=C/C(=O)C(C(=O)/C=C/c2ccc(OC(=O)CCNC34CC5CC(CC(C5)C3)C4)c(OC)c2)C(=O)CCNC23CC4CC(CC(C4)C2)C3)ccc1OC(=O)CCNC12CC3CC(CC(C3)C1)C2 (stereo not given)", "A498 renal", 59.3],
  ["CCCCOP(=O)(OCCCC)C(C(=O)OCC)C(CC(=O)OCC)C(=O)OCC (stereo not given)", "A498 renal", 97.8]
]}

Prompt: Identify the reported growth for the following entry. `CC(=O)c1nn(-c2ccccc2)c(=Nc2ccccc2)cc1C`
Response: 103

Prompt: Identify the reported growth for the following entry. `C=C(CN1CCc2c([nH]c3ccccc23)C1)c1ccc(C(=O)Nc2ccon2)cc1`
Response: 116

Prompt: Identify the reported growth for the following entry. `CCCn1c(N)c(C(=O)CNc2ccc(I)cc2)c(=O)[nH]c1=O`
Response: 49.2

Prompt: Identify the reported growth for the following entry. `Cc1nn(-c2ccccc2)c2nc(N)c(C3=NCCO3)nc12`
Response: 92.1

Prompt: Identify the reported growth for the following entry. `COc1ccc2nc(N/N=C(\C)c3ccccn3)cc(C)c2c1`
Response: -64.5

Prompt: Identify the reported growth for the following entry. `CC(C)N(Cc1ccccc1)c1c(Cl)ssc1=O`
Response: 109

---

- Tested on: UACC-62 melanoma
- RUN_DESCRIPTION: NCI-60 one-dose screen, 48 h
- CONDITION_DETAILS: 10 µM unless noted
This is part of a sample that, as a whole, favours compounds with a hit. Of some 83,000 tested, about 20% had one in any assay. Activity calls are given as the source filed them. How the source made its calls: active means growth percent below 10; inactive means the rest.
# output must be one of active, inactive

Consider the following illustrative entries.
{"columns": ["COMPOUND", "TARGET_OR_TEST_SYSTEM", "LABEL_VALUE"],
 "data": [
  ["CCOC(=O)CCC(=O)O[C@H]1[C@H](O[C@@H]2[C@@H](C)[C@H](O[C@H]3C[C@@](C)(OC)[C@@H](O)[C@H](C)O3)[C@@H](C)C(=O)O[C@H](CC)[C@@](C)(O)[C@H](O)[C@@H](C)C(=O)[C@H](C)C[C@@]2(C)O)O[C@H](C)C[C@@H]1N(C)C", "UACC-62 melanoma", "inactive"],
  ["CCOC(=O)OCC(=O)[C@@]1(O)CC[C@H]2[C@@H]3CCC4=CC(=O)CC[C@]4(C)[C@H]3[C@@H](O)C[C@@]21C", "UACC-62 melanoma", "inactive"],
  ["CCCCCCCSc1ncnc2[nH]ncc12", "UACC-62 melanoma", "inactive"]
]}

Prompt: Recorded call for `CCN(CC)CCCCCCCNc1c2ccc(Cl)cc2nc2ccc(OC)cc12` ?
Response: active

Prompt: Recorded call for `CCOC(=O)c1sc(NC(=O)COc2cccc(/C=C3\CCc4cc(OC)ccc4C3=O)c2)nc1C` ?
Response: inactive

Prompt: Recorded call for CC(=O)N1N=C(c2ccc(Nc3nc(NCCO)nc(NCCO)n3)cc2)CC1c1ccc(Cl)cc1 (configuration not stated) ?
Response: inactive

Prompt: Recorded call for OC(c1ccccc1)C(NCc1ccccc1)c1ccccc1 (configuration not stated) ?
Response: inactive
